Tested on: 695427-040-R-J1-PDC complex spheroid viability
Assay Procedure: Anticancer human tumor 695427-040-R-J1-PDC patient-derived colon adenocarcinoma cell line growth inhibition [POLQ]
Measurement Context: second compound 0.316 µM; first compound 0.0316 µM; stronger effect = lower value
Property Measured: viability, T/C (%)
Write the answer as a number in %, unit excluded.

COc1cc(C2c3cc4c(cc3C(OC3OC5COC(C)OC5C(O)C3O)C3COC(=O)C23)OCO4)cc(OC)c1O (stereo unspecified) + Nc1ccc(C#CCN(C(=O)Cc2ncc(C(F)(F)F)cc2C(F)(F)F)c2ccc(F)cc2)nn1	98.4
COc1cccc(OCCCN)c1-c1cc(Nc2cnc(C#N)cn2)n[nH]1 + Cc1cccc(N(C)C(=O)C2C(O)CCN2c2nc(C)cc(C(F)(F)F)c2C#N)c1	87
O=C(Nc1ccc(O)c(NS(=O)(=O)c2ccc(F)cc2)c1)c1ccc(-c2ccccc2)cc1 + COC1C(OC(N)=O)C(O)C(Oc2ccc3c(O)c(NC(=O)c4ccc(O)c(CC=C(C)C)c4)c(=O)oc3c2C)OC1(C)C	103
O=C(Nc1ccc(O)c(NS(=O)(=O)c2ccc(F)cc2)c1)c1ccc(-c2ccccc2)cc1 + Nc1ccc(C#CCN(C(=O)Cc2ncc(C(F)(F)F)cc2C(F)(F)F)c2ccc(F)cc2)nn1	106
O=c1[nH]cc(F)c(=O)[nH]1 + Cc1cccc(N(C)C(=O)C2C(O)CCN2c2nc(C)cc(C(F)(F)F)c2C#N)c1	112

## Input Tell me measured viability, T/C for Cn1ncnc1[C@H]1c2n[nH]c(=O)c3cc(F)cc(c23)N[C@@H]1c1ccc(F)cc1 + COC1C(OC(N)=O)C(O)C(Oc2ccc3c(O)c(NC(=O)c4ccc(O)c(CC=C(C)C)c4)c(=O)oc3c2C)OC1(C)C please.
## Output 103

## Input Look up and state reported viability, T/C for CCc1c2c(nc3ccc(O)cc13)-c1cc3c(c(=O)n1C2)COC(=O)[C@]3(O)CC + Cc1cccc(N(C)C(=O)C2C(O)CCN2c2nc(C)cc(C(F)(F)F)c2C#N)c1
## Output 90.7

## Input Return viability, T/C (reported value) for this compound: Cn1ncnc1[C@H]1c2n[nH]c(=O)c3cc(F)cc(c23)N[C@@H]1c1ccc(F)cc1 + Nc1ccc(C#CCN(C(=O)Cc2ncc(C(F)(F)F)cc2C(F)(F)F)c2ccc(F)cc2)nn1
## Output 110

## Input Output viability, T/C of C#Cc1c(F)ccc2cc(O)cc(-c3ncc4c(N5CC6CCC(C5)N6)nc(OCC56CCCN5CC(F)C6)nc4c3F)c12 (stereo unspecified) + Cc1cccc(N(C)C(=O)C2C(O)CCN2c2nc(C)cc(C(F)(F)F)c2C#N)c1
## Output 98.3

## Input State its viability, T/C for this compound: CCc1c2c(nc3ccc(O)cc13)-c1cc3c(c(=O)n1C2)COC(=O)[C@]3(O)CC + COC1C(OC(N)=O)C(O)C(Oc2ccc3c(O)c(NC(=O)c4ccc(O)c(CC=C(C)C)c4)c(=O)oc3c2C)OC1(C)C
## Output 78.8

## Input Hello, please tell me recorded viability, T/C for this one: Nc1ccn(C2OC(CO)C(O)C2(F)F)c(=O)n1 (stereo unspecified) + Cc1cccc(N(C)C(=O)C2C(O)CCN2c2nc(C)cc(C(F)(F)F)c2C#N)c1
## Output 103

----------
Entries and their measured IC50 follow.
System: 695427-040-R-J1-PDC complex spheroid viability
Assay Procedure: Anticancer human tumor 695427-040-R-J1-PDC cell line growth inhibition [POLQ];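 further: spheroids exposed to compounds for seven days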
Measurement Context: curve of first compound; second compound 0.0316 µM

Past entries and their recorded results:
CC1COCCN1c1cc(C2(O)CC3CCC(C2)O3)c2cnn(-c3ccn[nH]3)c2n1 (stereo not given) + Cc1cccc(N(C)C(=O)C2C(O)CCN2c2nc(C)cc(C(F)(F)F)c2C#N)c1	6.2 µM
COc1cccc(OCCCN)c1-c1cc(Nc2cnc(C#N)cn2)n[nH]1 + Cc1cccc(N(C)C(=O)C2C(O)CCN2c2nc(C)cc(C(F)(F)F)c2C#N)c1	> 1 µM
COc1cccc2c1C(=O)c1c(O)c3c(c(O)c1C2=O)CC(O)(C(=O)CO)CC3OC1CC(N)C(O)C(C)O1 (stereo not given) + COC1C(OC(N)=O)C(O)C(Oc2ccc3c(O)c(NC(=O)c4ccc(O)c(CC=C(C)C)c4)c(=O)oc3c2C)OC1(C)C	> 10 µM
COc1cccc2c1C(=O)c1c(O)c3c(c(O)c1C2=O)CC(O)(C(=O)CO)CC3OC1CC(N)C(O)C(C)O1 (stereo not given) + Cc1cccc(N(C)C(=O)C2C(O)CCN2c2nc(C)cc(C(F)(F)F)c2C#N)c1	> 10 µM
CC(=O)O[C@H]1C(=O)[C@@]2(C)[C@H]([C@H](OC(=O)c3ccccc3)[C@]3(O)C[C@H](OC(=O)[C@H](O)[C@@H](NC(=O)c4ccccc4)c4ccccc4)C(C)=C1C3(C)C)[C@]1(OC(C)=O)CO[C@@H]1C[C@@H]2O + Nc1ccc(C#CCN(C(=O)Cc2ncc(C(F)(F)F)cc2C(F)(F)F)c2ccc(F)cc2)nn1	> 3 µM

Next item in the queue.
## Input Supply IC50 value. Item: C=CCn1c(=O)c2cnc(Nc3ccc(N4CCN(C)CC4)cc3)nc2n1-c1cccc(C(C)(C)O)n1 + Cc1cccc(N(C)C(=O)C2C(O)CCN2c2nc(C)cc(C(F)(F)F)c2C#N)c1
## Output > 1 µM

----------
Tested on: 695427-040-R-J1-PDC complex spheroid viability
Assay Procedure: Anticancer human tumor 695427-040-R-J1-PDC cell line growth inhibition [POLQ];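 further: spheroids exposed to compounds for seven days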;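 on viability, T/C: 100% = DMSO vehicle control viability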
Measurement Context: second compound 10 µM; first compound 0.316 µM; stronger effect = lower value
Quick reference for viability, T/C among some molecules
A number alone suffices; assume %.

Illustrative cases are given below, each with its answer.
CCc1cc2c(N3CCc4c(cc(Cn5ccnc5)cc4-c4cn(C)nc4C(F)(F)F)C3=O)ccnc2c(OC)n1 + COC1C(OC(N)=O)C(O)C(Oc2ccc3c(O)c(NC(=O)c4ccc(O)c(CC=C(C)C)c4)c(=O)oc3c2C)OC1(C)C	108
O=C(Nc1ccc(O)c(NS(=O)(=O)c2ccc(F)cc2)c1)c1ccc(-c2ccccc2)cc1 + Nc1ccc(C#CCN(C(=O)Cc2ncc(C(F)(F)F)cc2C(F)(F)F)c2ccc(F)cc2)nn1	104
O=C(Nc1ccc(O)c(NS(=O)(=O)c2ccc(F)cc2)c1)c1ccc(-c2ccccc2)cc1 + Cc1cccc(N(C)C(=O)C2C(O)CCN2c2nc(C)cc(C(F)(F)F)c2C#N)c1	96.1
CCc1cc2c(N3CCc4c(cc(Cn5ccnc5)cc4-c4cn(C)nc4C(F)(F)F)C3=O)ccnc2c(OC)n1 + Nc1ccc(C#CCN(C(=O)Cc2ncc(C(F)(F)F)cc2C(F)(F)F)c2ccc(F)cc2)nn1	101
COc1cc(C2c3cc4c(cc3C(OC3OC5COC(C)OC5C(O)C3O)C3COC(=O)C23)OCO4)cc(OC)c1O (stereo not given) + COC1C(OC(N)=O)C(O)C(Oc2ccc3c(O)c(NC(=O)c4ccc(O)c(CC=C(C)C)c4)c(=O)oc3c2C)OC1(C)C	95.3

## Input Please supply the value of reported viability, T/C for the item CC1COCCN1c1cc(-c2ccnn2C)c2ccnc(-c3ccn[nH]3)c2n1 (stereo not given) + COC1C(OC(N)=O)C(O)C(Oc2ccc3c(O)c(NC(=O)c4ccc(O)c(CC=C(C)C)c4)c(=O)oc3c2C)OC1(C)C
## Output 65.9

## Input Give recorded viability, T/C. CNCc1ccc(-c2[nH]c3cc(F)cc4c3c2CCNC4=O)cc1 + COC1C(OC(N)=O)C(O)C(Oc2ccc3c(O)c(NC(=O)c4ccc(O)c(CC=C(C)C)c4)c(=O)oc3c2C)OC1(C)C
## Output 106

## Input Kindly indicate its recorded viability, T/C. Item: CC1COCCN1c1cc(C2(S(C)(=N)=O)CC2)nc(-c2ccnc3[nH]ccc23)n1 (stereo not given) + Nc1ccc(C#CCN(C(=O)Cc2ncc(C(F)(F)F)cc2C(F)(F)F)c2ccc(F)cc2)nn1
## Output 95

## Input State, in one line, measured viability, T/C of CCc1cc2c(N3CCc4c(cc(Cn5ccnc5)cc4-c4cn(C)nc4C(F)(F)F)C3=O)ccnc2c(OC)n1 + Cc1cccc(N(C)C(=O)C2C(O)CCN2c2nc(C)cc(C(F)(F)F)c2C#N)c1
## Output 93.6

## Input For Nc1ccn(C2OC(CO)C(O)C2(F)F)c(=O)n1 (stereo not given) + Nc1ccc(C#CCN(C(=O)Cc2ncc(C(F)(F)F)cc2C(F)(F)F)c2ccc(F)cc2)nn1 , write its viability, T/C.
## Output 82.3

----------
System: 695427-040-R-J1-PDC complex spheroid viability
Assay Procedure: Anticancer human tumor 695427-040-R-J1-PDC cell line growth inhibition [POLQ];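 further: spheroids exposed to compounds for seven days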;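 on viability, T/C: 100% = DMSO vehicle control viability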
Measurement Context: second compound 10 µM; first compound 1 µM; stronger effect = lower value
Known viability, T/C of a selection of compounds
Respond with the bare value in %.

Worked examples follow.
COc1cccc(OCCCN)c1-c1cc(Nc2cnc(C#N)cn2)n[nH]1 + Nc1ccc(C#CCN(C(=O)Cc2ncc(C(F)(F)F)cc2C(F)(F)F)c2ccc(F)cc2)nn1	44.3
COc1cccc(OCCCN)c1-c1cc(Nc2cnc(C#N)cn2)n[nH]1 + Cc1cccc(N(C)C(=O)C2C(O)CCN2c2nc(C)cc(C(F)(F)F)c2C#N)c1	43.5

## Input In one line, give reported viability, T/C of the entry CC1COCCN1c1cc(-c2ccnn2C)c2ccnc(-c3ccn[nH]3)c2n1 (stereo unspecified) + Nc1ccc(C#CCN(C(=O)Cc2ncc(C(F)(F)F)cc2C(F)(F)F)c2ccc(F)cc2)nn1 .
## Output 57.8

## Input Return viability, T/C (reported value) for this compound: CCc1c2c(nc3ccc(O)cc13)-c1cc3c(c(=O)n1C2)COC(=O)[C@]3(O)CC + Cc1cccc(N(C)C(=O)C2C(O)CCN2c2nc(C)cc(C(F)(F)F)c2C#N)c1
## Output 41.7

## Input Return viability, T/C (reported value) for this compound: CCc1cc2c(N3CCc4c(cc(Cn5ccnc5)cc4-c4cn(C)nc4C(F)(F)F)C3=O)cc(C)nc2c(OC)n1 + Cc1cccc(N(C)C(=O)C2C(O)CCN2c2nc(C)cc(C(F)(F)F)c2C#N)c1
## Output 95.4

## Input Specify measured viability, T/C for C#Cc1c(F)ccc2cc(O)cc(-c3ncc4c(N5CC6CCC(C5)N6)nc(OCC56CCCN5CC(F)C6)nc4c3F)c12 (stereo unspecified) + Nc1ccc(C#CCN(C(=O)Cc2ncc(C(F)(F)F)cc2C(F)(F)F)c2ccc(F)cc2)nn1 .
## Output 83.6
